assay text: recombinant barcode read abundance after kanamycin selection (control-corrected) (log10(CPM+1)); higher = more efficient recombination; sequences stand for … in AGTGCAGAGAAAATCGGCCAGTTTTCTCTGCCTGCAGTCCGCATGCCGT…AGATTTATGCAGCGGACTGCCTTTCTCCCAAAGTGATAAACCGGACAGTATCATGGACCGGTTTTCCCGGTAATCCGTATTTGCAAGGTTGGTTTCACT; site = the 11-nt target
measured parameter: recombinant barcode read abundance (log10)

ordered residues | value measured
TGGTTCGCTTGGGTTCTAACCTGTTGCCT (site TGGTACGCTAG) | 0.0339
GTCAAGACTTGGGTTCTAACCTGTTGCCG (site GTCAAGACTCG) | 1.94
TAGTTTACTTGGGTTCTAACCTGTTGCCA (site TAGTTAACTTG) | 0.0268
TGCTGTCCTTGGGTTCTAACCTGTTGCCT (site TGCTGTGCTAG) | 0.139
CATTCGCCTTGGGTTCTAACCTGTTGCGT (site CATTCGCCTAC) | 0.329
CTCGGATCTTGGGTTCTAACCTGTTGCCT (site CTCGGACCTAG) | 0.391
TATTCTACTTGGGTTCTAACCTGTTGCGA (site TATTCTACTCC) | 0.0347
GGAGTACCTTGGGTTCTAACCTGTTGCAT (site CCTCATACTTG) | 0.0895
TATGCTTCTTGGGTTCTAACCTGTTGCTT (site TATGGTTCTAG) | 0.0104
GGGGCTTCTTGGGTTCTAACCTGTTGCTT (site GGGGCGTCTAA) | 0.343
TACACTACTTGGGTTCTAACCTGTTGCCG (site TACACGACTCC) | 0.0364
CAGGCGTCTTGGGTTCTAACCTGTTGCAC (site CAGGCGTCTGT) | 1.12
ATGTCCTCTTGGGTTCTAACCTGTTGCCA (site GCTCGGGCTCC) | 0
CCAAGGGCTTGGGTTCTAACCTGTTGCTG (site CCAAGGGCTCA) | 1.31
AGTCAGACTTGGGTTCTAACCTGTTGCAC (site CTAAGCGCTAG) | 0.396
AACACTGCTTGGGTTCTAACCTGTTGCCT (site AACAGTGCTAG) | 0

====

assay text: recombinant UMI read abundance after kanamycin selection (control-corrected) (log10(CPM+1)); higher = more efficient recombination; extreme values may be limits of the assay; sequences stand for … in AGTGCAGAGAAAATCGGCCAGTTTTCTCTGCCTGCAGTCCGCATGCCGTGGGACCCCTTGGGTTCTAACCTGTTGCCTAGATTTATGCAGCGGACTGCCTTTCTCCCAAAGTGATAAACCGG…AGGTTGGTTTCACT; site = the 11-nt donor
Classify as follows. Reported recombinant UMI read abundance (log10) greater than or equal to 0.02: Condition met. Reported recombinant UMI read abundance (log10) below: Condition not met.

ordered residues | answer label
GGTCCAACATGGACCGGTTTTCCCGGTAATCCGTATTTGTG (site GGTCCAACTTA) | Condition not met
GGCCCCCCATGGACCGGTTTTCCCGGTAATCCGTATTTGTT (site GGCCACCCTAA) | Condition met
CTCTATACATGGACCGGTTTTCCCGGTAATCCGTATTTGCT (site CTCTACACTAG) | Condition met
CAGCTCACATGGACCGGTTTTCCCGGTAATCCGTATTTGAT (site AAGCTCACTAT) | Condition met

====

assay text: recombinant barcode read abundance after kanamycin selection (control-corrected) (log10(CPM+1)); higher = more efficient recombination; sequences stand for … in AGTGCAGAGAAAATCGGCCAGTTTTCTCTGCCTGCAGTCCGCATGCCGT…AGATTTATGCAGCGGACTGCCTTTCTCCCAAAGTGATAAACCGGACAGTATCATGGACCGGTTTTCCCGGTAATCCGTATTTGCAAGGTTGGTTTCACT; site = the 11-nt target
Classify as follows. Reported recombinant barcode read abundance (log10) greater than or equal to 0.07: satisfied. Reported recombinant barcode read abundance (log10) below: not satisfied.

ordered residues | answer label
TGCGGAGCTTGGGTTCTAACCTGTTGCCT (site TGCCGACCTAG) | satisfied
GTCTCTCCTTGGGTTCTAACCTGTTGCCG (site GTGTCTCCTCG) | satisfied
ACAGCCGCTTGGGTTCTAACCTGTTGCCT (site ACAGACGCTAG) | satisfied
TTGCGAACTTGGGTTCTAACCTGTTGCCT (site TTGCTAACTAG) | not satisfied
AGTCAGTCTTGGGTTCTAACCTGTTGCCA (site AGTCAGTCTTG) | satisfied
TACACAGCTTGGGTTCTAACCTGTTGCCT (site TAAACAGCTAG) | satisfied
ACGCATCCTTGGGTTCTAACCTGTTGCCT (site AAGCATCCTAG) | not satisfied
AAGACCTCTTGGGTTCTAACCTGTTGCTT (site AAGGCCTCTAA) | satisfied
CCTACCGCTTGGGTTCTAACCTGTTGCTT (site CGTACCGCTAG) | not satisfied
CACAAGTCTTGGGTTCTAACCTGTTGCTT (site CGCACGTCTAA) | not satisfied
CACTTAACTTGGGTTCTAACCTGTTGCCA (site CACTTAACTTG) | satisfied
GACTCCGCTTGGGTTCTAACCTGTTGCCT (site GACTCCGCTAG) | satisfied
CTCGGAACTTGGGTTCTAACCTGTTGCCT (site CTCGGAACTAG) | satisfied
CGTCTGACTTGGGTTCTAACCTGTTGCCA (site CGACTGACTAG) | satisfied
TAAGGAGCTTGGGTTCTAACCTGTTGCCT (site TAAGGAGCTAG) | satisfied
CGGACTGCTTGGGTTCTAACCTGTTGCCT (site CGGACTGCTAG) | satisfied
CCTGACTCTTGGGTTCTAACCTGTTGCAT (site CCTGACTCTAT) | satisfied
TCCGACACTTGGGTTCTAACCTGTTGCCT (site TCCGACACTAG) | satisfied
AAGTGTCCTTGGGTTCTAACCTGTTGCAT (site AAGTGTCCTAT) | satisfied
TACGTGTCTTGGGTTCTAACCTGTTGCCT (site TAGGTGTCTAG) | not satisfied
ACAGCTTCTTGGGTTCTAACCTGTTGCCT (site ACAGCTTCTAG) | satisfied
CCACTGTCTTGGGTTCTAACCTGTTGCCT (site CCACCGTCTAG) | not satisfied
CTCTAAACTTGGGTTCTAACCTGTTGCCA (site CTCTAGACTTG) | satisfied
GGGGTCCCTTGGGTTCTAACCTGTTGCCA (site GAGATCCCTTG) | satisfied
AATACTACTTGGGTTCTAACCTGTTGCTG (site AATACTACTCA) | satisfied
CTTCATTCTTGGGTTCTAACCTGTTGCCT (site TGCTGGGCTCA) | not satisfied
TGATCTCCTTGGGTTCTAACCTGTTGCTT (site TGATCTCCTAT) | not satisfied
CGCTGTCCTTGGGTTCTAACCTGTTGCTT (site CGCTGACCTAA) | satisfied

====

assay text: recombinant UMI read abundance after kanamycin selection (control-corrected) (log10(CPM+1)); higher = more efficient recombination; extreme values may be limits of the assay; sequences stand for … in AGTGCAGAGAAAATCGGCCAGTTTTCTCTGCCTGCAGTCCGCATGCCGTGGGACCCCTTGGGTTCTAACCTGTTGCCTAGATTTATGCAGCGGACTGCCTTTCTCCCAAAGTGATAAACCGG…AGGTTGGTTTCACT; site = the 11-nt donor
Classify as follows. Reported recombinant UMI read abundance (log10) greater than or equal to 2: Yes. Reported recombinant UMI read abundance (log10) below: No.

ordered residues | answer label
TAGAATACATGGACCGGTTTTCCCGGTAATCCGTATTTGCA (site TAGAAAACTTG) | No
ACTCAAGCATGGACCGGTTTTCCCGGTAATCCGTATTTGCA (site ACTCAAGCTTG) | Yes
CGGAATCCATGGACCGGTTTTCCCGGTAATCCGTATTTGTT (site CGGAACCCTAA) | No
GCGCTGACATGGACCGGTTTTCCCGGTAATCCGTATTTGAG (site GCGCTGACTCT) | No
ACACGAACATGGACCGGTTTTCCCGGTAATCCGTATTTGTG (site ACACGAACTCA) | No
GAGCTCGCATGGACCGGTTTTCCCGGTAATCCGTATTTGAT (site GAGCTCACTAT) | No
AGAAACACATGGACCGGTTTTCCCGGTAATCCGTATTTGTC (site AGAAACACTGA) | Yes
AGGTAGACATGGACCGGTTTTCCCGGTAATCCGTATTTGAA (site AGGAAGACTTG) | No

====

assay text: recombinant UMI read abundance after kanamycin selection (control-corrected) (log10(CPM+1)); higher = more efficient recombination; extreme values may be limits of the assay; sequences stand for … in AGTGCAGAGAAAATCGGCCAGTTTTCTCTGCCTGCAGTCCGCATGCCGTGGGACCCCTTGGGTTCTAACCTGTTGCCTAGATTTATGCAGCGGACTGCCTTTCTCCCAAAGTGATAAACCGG…AGGTTGGTTTCACT; site = the 11-nt donor
Classify as follows. Reported recombinant UMI read abundance (log10) greater than or equal to 0.3: Fulfilled. Reported recombinant UMI read abundance (log10) below: Not fulfilled.

ordered residues | answer label
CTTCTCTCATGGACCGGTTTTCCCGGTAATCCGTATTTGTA (site CTTCGCTCTTA) | Not fulfilled
CTTCTCTCATGGACCGGTTTTCCCGGTAATCCGTATTTGTT (site CTTCTCTCTTA) | Fulfilled
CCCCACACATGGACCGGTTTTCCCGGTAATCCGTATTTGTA (site CACCACACTTA) | Not fulfilled
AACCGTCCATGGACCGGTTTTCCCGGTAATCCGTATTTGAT (site AACCGTACTAT) | Not fulfilled
GTAGGTGCATGGACCGGTTTTCCCGGTAATCCGTATTTGAC (site GTAGGTCCTGT) | Fulfilled
CGGGCACCATGGACCGGTTTTCCCGGTAATCCGTATTTGAT (site CGGGGACCTAT) | Not fulfilled
CTGGTAGCATGGACCGGTTTTCCCGGTAATCCGTATTTGAC (site CTAGTATCTGT) | Fulfilled
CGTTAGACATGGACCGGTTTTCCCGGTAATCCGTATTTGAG (site GGTTAGACTCT) | Not fulfilled
TAATGAGCATGGACCGGTTTTCCCGGTAATCCGTATTTGCG (site TAATGAGCTCG) | Fulfilled
GGTTCTACATGGACCGGTTTTCCCGGTAATCCGTATTTGAG (site GGTTCTACTCT) | Fulfilled
ACTAGTGCATGGACCGGTTTTCCCGGTAATCCGTATTTGTT (site ACTAGTGCTAA) | Fulfilled
TAATGCTCATGGACCGGTTTTCCCGGTAATCCGTATTTGAA (site AAATGCTCTTT) | Not fulfilled
GGATAGACATGGACCGGTTTTCCCGGTAATCCGTATTTGCG (site GGATAGACTAG) | Fulfilled
TCGACCGCATGGACCGGTTTTCCCGGTAATCCGTATTTGCG (site TCAACCGCTCG) | Not fulfilled
CTTGGATCATGGACCGGTTTTCCCGGTAATCCGTATTTGCA (site CTTGGATCTTG) | Fulfilled
ATCCCAGCATGGACCGGTTTTCCCGGTAATCCGTATTTGAG (site ATCCGAGCTCT) | Not fulfilled
GCGAAAACATGGACCGGTTTTCCCGGTAATCCGTATTTGCA (site GCGAAAACTAG) | Not fulfilled
GTTCGTGCATGGACCGGTTTTCCCGGTAATCCGTATTTGCA (site GTTCGTGCTTG) | Fulfilled
ATGTTGGCATGGACCGGTTTTCCCGGTAATCCGTATTTGGC (site ATGTCGGCTGC) | Fulfilled
ATAAGGCCATGGACCGGTTTTCCCGGTAATCCGTATTTGAG (site ATAAGGCCTTT) | Not fulfilled
CGACCCTCATGGACCGGTTTTCCCGGTAATCCGTATTTGCT (site CGACCCTCTAG) | Fulfilled
CGAACGACATGGACCGGTTTTCCCGGTAATCCGTATTTGTT (site CGAGCGACTAA) | Not fulfilled
ACAGGAACATGGACCGGTTTTCCCGGTAATCCGTATTTGTC (site ACAAGAACTGA) | Fulfilled
AACGTGTCATGGACCGGTTTTCCCGGTAATCCGTATTTGAC (site AACGTGTCTGT) | Not fulfilled
CGGTAGACATGGACCGGTTTTCCCGGTAATCCGTATTTGAG (site CGTTAGACTCT) | Fulfilled
CCGGTTACATGGACCGGTTTTCCCGGTAATCCGTATTTGCT (site CCGTTTACTAG) | Not fulfilled
TTTACGTCATGGACCGGTTTTCCCGGTAATCCGTATTTGAT (site TTTACGTCTAT) | Not fulfilled
TTCTACACATGGACCGGTTTTCCCGGTAATCCGTATTTGCT (site GTCTACACTAG) | Fulfilled
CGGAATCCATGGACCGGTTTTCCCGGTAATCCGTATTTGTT (site CGGACCCCTAA) | Not fulfilled
